assay: Half-life determination in plasma by mass spectrometry (LC-MS/MS); assay type: in vitro ADME, human; conditions: both sexes, pooled K3 EDTA plasma; 7 µM in human plasma, 37 °C; TFA samples ten-fold diluted with 50 mM NH4HCO3 + 10 mM DTT + 6M GuHCl before LC-MS/MS; one-phase decay; 3 rounds; read-out: half-life in human plasma, mass spectrometry, after GuHCl + DTT ("real" half-live)
Ends that are not written are not given here.
reportedProperty: half-life at 7 µM (min)

chain="IVRWSKKVPCVS [EPI-X4 WSC02]" testvalue=6

---

experiment: Half-life determination in plasma by mass spectrometry (LC-MS/MS); format: in vitro ADME, human; settings: both sexes, pooled K3 EDTA plasma; 7 µM in human plasma, 37 °C; TFA samples ten-fold diluted with 50 mM NH4HCO3 + 10 mM DTT + 6M GuHCl before LC-MS/MS; one-phase decay; 3 rounds; read-out: half-life in human plasma, mass spectrometry, after GuHCl + DTT ("real" half-live)
reportedProperty: half-life at 7 µM (min)

compound="CC[C@H](C)[C@H](N)C(=O)N[C@@H](CC(C)C)C(=O)N[C@@H](CCCNC(=N)N)C(=O)N[C@@H](Cc1c[nH]c2ccccc12)C(=O)N[C@@H](CO)C(=O)N[C@@H](CCCNC(=N)N)C(=O)N[C@@H](CCCCN)C(=O)N[C@@H](CC(C)C)C(=O)N1CCC[C@H]1C(=O)N[C@@H](CS)C(=O)N[C@H](C(=O)N[C@@H](CO)C(=O)O)C(C)C [EPI-X4 JM#21]" unitssymbol=min testvalue=5

---

experiment: Half-life determination in plasma by mass spectrometry (LC-MS/MS); format: in vitro ADME, human; settings: both sexes, pooled K3 EDTA plasma; human plasma, 37 °C; LC-MS/MS of intact peptide normalized to t = 0; one-phase decay; 3 rounds; sample treatment for the variants not stated; read-out: half-life in human plasma, mass spectrometry, peptides without a reactive Cys-thiol
Peptide text beside a SMILES is read from it. * marks the point of attachment. Cam = NC(=O)C*
Readings of half-life for the listed compounds
reportedProperty: half-life

compound="CC[C@H](C)[C@H](N)C(=O)N[C@@H](CC(C)C)C(=O)N[C@@H](CCCNC(=N)N)C(=O)N[C@@H](Cc1c[nH]c2ccccc12)C(=O)N[C@@H](CO)C(=O)N[C@@H](CCCNC(=N)N)C(=O)N[C@@H](CCCCN)C(=O)N[C@@H](CC(C)C)C(=O)N1CCC[C@H]1C(=O)N[C@@H](CSCC(N)=O)C(=O)N[C@H](C(=O)N[C@@H](CO)C(=O)O)C(C)C [JM#21 Cdm]" reportedproperty=half-life testvalue="3 min"
compound="CC[C@H](C)[C@H](N)C(=O)N[C@H](C(=O)N[C@@H](CCCNC(=N)N)C(=O)N[C@@H](Cc1c[nH]c2ccccc12)C(=O)N[C@@H](CO)C(=O)N[C@@H](CCCCN)C(=O)N[C@@H](CCCCN)C(=O)N[C@H](C(=O)N1CCC[C@H]1C(=O)N[C@@H](CSCC(N)=O)C(=O)N[C@H](C(=O)N[C@@H](CO)C(=O)O)C(C)C)C(C)C)C(C)C [WSC02 Cdm] (H-IVRWSKKVPC(Cam)VS-OH)" reportedproperty=half-life testvalue="5 min"

---

experiment: Half-life determination in plasma by mass spectrometry (LC-MS/MS); format: in vitro ADME, human; details: both sexes, pooled K3 EDTA plasma; human plasma, 37 °C; LC-MS/MS of intact peptide normalized to t = 0; one-phase decay; 3 rounds; sample treatment for the variants not stated; read-out: half-life in human plasma, mass spectrometry, peptides without a reactive Cys-thiol
Ends that are not written are not given here.
Each entry below lists one item and its recorded half-life value.
reportedProperty: half-life (min)

chain="IVRWSKKVPSVS [WSC02 C10S]" unitssymbol=min testvalue=4
chain="ILRWSRKLPSVS [JM#21 C10S]" unitssymbol=min testvalue=4
